# METHOD_DESCRIPTION: Lipophilicity log P of the compound
# Assay type: physicochemical
# RUN_PARAMETERS: octanol/water
PROPERTY_LABEL: logP
// return just the number, without any unit appended

>  <COMPOUND_SMILES>
COCCN(CCOC)c1nc(C)nc2c(-c3ccc(OC)cc3C)c(C)nn12.O=S(=O)(O)c1ccccc1

>  <PROPERTY_LABEL>
logP

>  <QUANTITATIVE_RESULT>
4.76

$$$$
>  <COMPOUND_SMILES>
CC[C@@H](C)Nc1nc(C)nc2c(-c3ccc(OC)nc3C)c(C)nn12

>  <PROPERTY_LABEL>
logP

>  <QUANTITATIVE_RESULT>
4.32

$$$$

Output logP of `COCC(COC)Nc1nc(C)nc2c(-c3ccc(Cl)cc3Cl)c(C)nn12`
4.97
